assay: Antiproliferative activity against human KB-VIN cells over expressing p-gp assessed as reduction in cell viability by SRB assay; format: functional, cell-based; conditions: KBVIN

{"molecule": "CC(C)=CC(=O)C[C@@H](C)[C@H]1CC[C@@]2(C)[C@@H]3CC[C@H]4C(C)(C)[C@@H](O)CC[C@@]45C[C@@]35CC[C@]12C", "IC50": "> 10 µM"}
{"molecule": "CC(C)=C[C@@H]1C[C@H]([C@H]2CC[C@@]3(C)[C@@H]4CC[C@H]5C(C)(C)C(=O)CC[C@@]56C[C@@]46CC[C@]23C)CO1", "IC50": "> 10 µM"}
{"molecule": "C=C1CC[C@@H]2[C@H]([C@H]3[C@@H]1CC[C@]3(C)O)[C@@]2(C)CCC=C(C)C", "IC50": "> 10 µM"}
{"molecule": "CC1(C)OCC([C@@H]2CC[C@]3(C)C4=CC[C@H]5C(C)(C)C(=O)CC[C@]5(C)[C@H]4CC[C@@]23C)C[C@@H](O)[C@@H]1O (some centres not stated)", "IC50": "7.9 µM"}
{"molecule": "C=C[C@]1(C)C=C2C(=O)CC3C(C)(C)CCC[C@]3(C)C2CC1 (some centres not stated)", "IC50": "> 10 µM"}
{"molecule": "C[C@H](C/C=C/C(C)(C)O)[C@H]1CC[C@@]2(C)[C@@H]3CC[C@H]4C(C)(C)[C@H](O)CC[C@@]45C[C@@]35CC[C@]12C", "IC50": "> 10 µM"}
{"molecule": "CC(=O)O[C@H]1[C@@H](OC(C)=O)[C@@]2(C)C3=CC[C@@H]([C@H]4COC(=O)C4)[C@]3(C)CC[C@@H]2[C@@]2(C)[C@@H](O)C[C@@H](O)C(C)(C)[C@H]12", "IC50": "> 10 µM"}
{"molecule": "C[C@@H]([C@H](O)/C=C/C(C)(C)O)[C@@H]1CC[C@]2(C)C3=CC[C@H]4C(C)(C)C(=O)CC[C@]4(C)[C@H]3CC[C@@]12C", "IC50": "9.5 µM"}
{"molecule": "C[C@@H]([C@@H]1O[C@@H]1[C@@H]1OC1(C)C)[C@@H]1CC[C@]2(C)C3=CC[C@H]4C(C)(C)C(=O)CC[C@]4(C)[C@H]3CC[C@@]12C", "IC50": "8.3 µM"}
{"molecule": "CC(C)CC(=O)[C@@H](O)[C@H](C)[C@@H]1CC[C@]2(C)C3=CC[C@H]4C(C)(C)C(=O)CC[C@]4(C)[C@H]3CC[C@@]12C", "IC50": "> 10 µM"}
{"molecule": "CC(C)=C[C@H]1C[C@H]([C@H]2CC[C@@]3(C)[C@@H]4CC[C@H]5C(C)(C)C(=O)CC[C@@]56C[C@@]46CC[C@]23C)CO1", "IC50": "> 10 µM"}
{"molecule": "CC(C)=CC(O)C[C@H](C)[C@@H]1CC[C@]2(C)C3=CCC4C(C)(C)[C@@H](O)CC[C@]4(C)[C@H]3CC[C@@]12C (some centres not stated)", "IC50": "> 10 µM"}

* * *

tested on: MCF7; experiment: Antiproliferative activity against human MCF7 cells assessed as reduction in cell viability by SRB assay; assay type: functional, cell-based
pIC50: −log10 of the molar value.

{"molecule": "CC(C)=CCC[C@]1(C)[C@H]2[C@@H]3[C@H](C)CC[C@H]3[C@](C)(O)CC[C@H]21", "pIC50": "< 5.00"}
{"molecule": "CC(=O)O[C@H]1[C@@H](OC(C)=O)[C@@]2(C)C3=CC[C@@H]([C@H]4COC(=O)C4)[C@]3(C)CC[C@@H]2[C@@]2(C)[C@@H](O)C[C@@H](O)C(C)(C)[C@H]12", "pIC50": "< 5.00"}
{"molecule": "C[C@H]([C@H]1OC(C)(C)[C@@H](O)[C@@H]1O)[C@@H]1CC[C@]2(C)C3=CC[C@H]4C(C)(C)C(=O)CC[C@]4(C)[C@H]3CC[C@@]12C (relative stereo)", "pIC50": "< 5.00"}
{"molecule": "C[C@@H](C[C@@H](O)[C@@H]1OC1(C)C)[C@@H]1CC[C@]2(C)C3=CC[C@H]4C(C)(C)[C@@H](O)CC[C@]4(C)[C@H]3CC[C@@]12C [DIHYDRONILOTICIN]", "pIC50": 5.14}
{"molecule": "CC1(C)C(=O)CC[C@@]2(C)C1CC=C1[C@@H]2CC[C@@]2(C)[C@H](C3CO[C@@H](C(C)(C)O)[C@H](O)C3)CC[C@]12C (stereo not given in full)", "pIC50": "< 5.00"}
